# Tested on: PC-3
# assayComment: MTT cell viability assay, PC-3
# Format: cell-based
# conditionNotes: PC-3, Prostate Cancer, 24 or 48 or 72 hours
# reported IC50; entries follow
Report the value in µM with no unit label.

C=CC(=O)N1CCC2(CC1)C(=Cc1ccc([N+](=O)[O-])cc1)C(=O)C2=Cc1ccc([N+](=O)[O-])cc1 = 0.057

Switching to the query record.
I'm curious: which IC50 was measured for O=C(CCl)NC(Cc1ccccc1)C(=O)N1CCC2(CC1)C(=Cc1ccc([N+](=O)[O-])cc1)C(=O)C2=Cc1ccc([N+](=O)[O-])cc1 (centres unmarked) tested on PC-3? 0.074
